TESTED_ON: Cathepsin B (Homo sapiens)
METHOD_DESCRIPTION: Inhibition of Cathepsin-B (unknown origin) at 5 uM preincubated for 15 mins followed by Z-Arg-Arg-AMC addition measured after 30 mins by fluorescence assay relative to control
Listed here are molecules together with their documented inhibition.

Query: Which value of inhibition has been reported for O=C(/C=C/c1ccccc1)c1nc2ccccc2[nH]1 in the records?
Result: 10.1%

Query: Which value of inhibition has been reported for O=C(/C=C/c1cccc(NS(=O)(=O)c2cccc(Cl)c2)c1)c1nc2ccccc2[nH]1 in the records?
Result: 15.2%

Query: Which value of inhibition has been reported for CC(C)C[C@H](NC(=O)[C@@H]1O[C@H]1C(=O)O)C(=O)NCCCCN=C(N)N in the records?
Result: 100%

Query: Which value of inhibition has been reported for Cc1ccccc1S(=O)(=O)Nc1cccc(/C=C/C(=O)c2nc3ccccc3[nH]2)c1 in the records?
Result: 40%

Query: Which value of inhibition has been reported for Cc1ccc(S(=O)(=O)Nc2cccc(/C=C/C(=O)c3nc4ccccc4[nH]3)c2)cc1 in the records?
Result: 34.3%

Query: Which value of inhibition has been reported for Cc1cccc(C(=O)Nc2cccc(/C=C/C(=O)c3nc4ccccc4[nH]3)c2)c1 in the records?
Result: 41.3%

Further cases:
Query: Which value of inhibition has been reported for O=C(/C=C/c1cccc(NS(=O)(=O)c2ccc(Cl)cc2)c1)c1nc2ccccc2[nH]1 in the records?
Result: 23.8%

Query: Which value of inhibition has been reported for O=C(/C=C/c1cccc(NS(=O)(=O)c2ccccc2Cl)c1)c1nc2ccccc2[nH]1 in the records?
Result: 32.5%

Query: Which value of inhibition has been reported for CC(C)(F)C[C@H](C[C@@H](c1ccc(-c2ccc(S(C)(=O)=O)cc2)cc1)C(F)(F)F)C(=O)NC1(C#N)CC1 in the records?
Result: 100%

====

TESTED_ON: Cathepsin B (Homo sapiens)
METHOD_DESCRIPTION: Inhibition of Cathepsin-B (unknown origin) at 5 uM preincubated for 15 mins followed by Z-Arg-Arg-AMC addition measured after 30 mins by fluorescence assay relative to control
PROPERTY_NAME: inhibition (%)
# number only, unit % dropped from output

Known inhibition results, listed for orientation:
Query: Which value of inhibition has been reported for CCCNC(=O)[C@H]1O[C@@H]1C(=O)N[C@H](C(=O)N1CCC[C@H]1C(=O)O)[C@@H](C)CC in the records?
Result: 100

Query: Which value of inhibition has been reported for Cc1cccc(S(=O)(=O)Nc2cccc(/C=C/C(=O)c3nc4ccccc4[nH]3)c2)c1 in the records?
Result: 45.6

For the next question, use this compound.
Query: Which value of inhibition has been reported for O=C(Nc1cccc(/C=C/C(=O)c2nc3ccccc3[nH]2)c1)c1cccc(Cl)c1 in the records?
Result: 30.5

====

Listed here are compounds together with their documented inhibition.
TESTED_ON: Procathepsin L (Homo sapiens) (UniProt P07711)
Sequence (P07711 114-333 limits assumed): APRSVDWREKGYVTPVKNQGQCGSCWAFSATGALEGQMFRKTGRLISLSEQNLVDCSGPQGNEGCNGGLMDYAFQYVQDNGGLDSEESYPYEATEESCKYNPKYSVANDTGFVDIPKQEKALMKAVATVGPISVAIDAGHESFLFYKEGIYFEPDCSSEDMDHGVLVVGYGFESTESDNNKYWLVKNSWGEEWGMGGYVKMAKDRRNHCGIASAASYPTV
METHOD_DESCRIPTION: Inhibition of Cathepsin-L (unknown origin) at 5 uM preincubated for 15 mins followed by Z-Phe-Arg-AMC addition measured after 30 mins by fluorescence assay relative to control
# number only, unit % dropped from output

Query: Which value of inhibition has been reported for Cc1ccccc1S(=O)(=O)Nc1cccc(/C=C/C(=O)c2nc3ccccc3[nH]2)c1 in the records?
Result: 71.3

Query: Which value of inhibition has been reported for CC(C)(F)C[C@H](C[C@@H](c1ccc(-c2ccc(S(C)(=O)=O)cc2)cc1)C(F)(F)F)C(=O)NC1(C#N)CC1 in the records?
Result: 71.3

Query: Which value of inhibition has been reported for O=C(/C=C/c1cccc(NS(=O)(=O)c2ccccc2Cl)c1)c1nc2ccccc2[nH]1 in the records?
Result: 62.9

Query: Which value of inhibition has been reported for Cc1cccc(S(=O)(=O)Nc2cccc(/C=C/C(=O)c3nc4ccccc4[nH]3)c2)c1 in the records?
Result: 92.3

Query: Which value of inhibition has been reported for Cc1cccc(C(=O)Nc2cccc(/C=C/C(=O)c3nc4ccccc4[nH]3)c2)c1 in the records?
Result: 88.5

Query: Which value of inhibition has been reported for O=C(/C=C/c1ccccc1)c1nc2ccccc2[nH]1 in the records?
Result: 35.4

Query: Which value of inhibition has been reported for O=C(/C=C/c1cccc(NS(=O)(=O)c2cccc(Cl)c2)c1)c1nc2ccccc2[nH]1 in the records?
Result: 78.9

Query: Which value of inhibition has been reported for O=C(Nc1cccc(/C=C/C(=O)c2nc3ccccc3[nH]2)c1)c1cccc(Cl)c1 in the records?
Result: 86

Further cases:
Query: Which value of inhibition has been reported for Cc1ccc(S(=O)(=O)Nc2cccc(/C=C/C(=O)c3nc4ccccc4[nH]3)c2)cc1 in the records?
Result: 93.8

Query: Which value of inhibition has been reported for O=C(/C=C/c1cccc(NS(=O)(=O)c2ccc(Cl)cc2)c1)c1nc2ccccc2[nH]1 in the records?
Result: 58

Query: Which value of inhibition has been reported for CC(C)C[C@H](NC(=O)[C@@H]1O[C@H]1C(=O)O)C(=O)NCCCCN=C(N)N in the records?
Result: 100

====

TESTED_ON: Cathepsin K (Homo sapiens)
METHOD_DESCRIPTION: Inhibition of recombinant human Cathepsin-K at 5 uM preincubated for 15 mins followed by Z-Phe-Arg-AMC addition measured after 30 mins by fluorescence assay relative to control
PROPERTY_NAME: inhibition (%)
# number only, unit % dropped from output

Query: For the record O=C(/C=C/c1cccc(NS(=O)(=O)c2ccccc2Cl)c1)c1nc2ccccc2[nH]1 , what value of inhibition is listed for Cathepsin K (Homo sapiens)?
Result: 86.5

Query: For the record Cc1cccc(S(=O)(=O)Nc2cccc(/C=C/C(=O)c3nc4ccccc4[nH]3)c2)c1 , what value of inhibition is listed for Cathepsin K (Homo sapiens)?
Result: 93.5

Query: For the record O=C(/C=C/c1cccc(NS(=O)(=O)c2ccc(Cl)cc2)c1)c1nc2ccccc2[nH]1 , what value of inhibition is listed for Cathepsin K (Homo sapiens)?
Result: 58.1

Query: For the record O=C(/C=C/c1ccccc1)c1nc2ccccc2[nH]1 , what value of inhibition is listed for Cathepsin K (Homo sapiens)?
Result: 37.9

Query: For the record Cc1ccccc1S(=O)(=O)Nc1cccc(/C=C/C(=O)c2nc3ccccc3[nH]2)c1 , what value of inhibition is listed for Cathepsin K (Homo sapiens)?
Result: 91.3

Query: For the record O=C(Nc1cccc(/C=C/C(=O)c2nc3ccccc3[nH]2)c1)c1cccc(Cl)c1 , what value of inhibition is listed for Cathepsin K (Homo sapiens)?
Result: 73

Further cases:
Query: For the record CC(C)(F)C[C@H](C[C@@H](c1ccc(-c2ccc(S(C)(=O)=O)cc2)cc1)C(F)(F)F)C(=O)NC1(C#N)CC1 , what value of inhibition is listed for Cathepsin K (Homo sapiens)?
Result: 100

Query: For the record CC(C)C[C@H](NC(=O)[C@@H]1O[C@H]1C(=O)O)C(=O)NCCCCN=C(N)N , what value of inhibition is listed for Cathepsin K (Homo sapiens)?
Result: 100

Query: For the record Cc1ccc(S(=O)(=O)Nc2cccc(/C=C/C(=O)c3nc4ccccc4[nH]3)c2)cc1 , what value of inhibition is listed for Cathepsin K (Homo sapiens)?
Result: 86

Query: For the record Cc1cccc(C(=O)Nc2cccc(/C=C/C(=O)c3nc4ccccc4[nH]3)c2)c1 , what value of inhibition is listed for Cathepsin K (Homo sapiens)?
Result: 78

Query: For the record O=C(/C=C/c1cccc(NS(=O)(=O)c2cccc(Cl)c2)c1)c1nc2ccccc2[nH]1 , what value of inhibition is listed for Cathepsin K (Homo sapiens)?
Result: 89.2

====

Listed here are molecules together with their documented inhibition.
TESTED_ON: Cathepsin S (Homo sapiens)
METHOD_DESCRIPTION: Inhibition of Cathepsin-S (unknown origin) at 5 uM preincubated for 15 mins followed by Ac-Lys-Gln-Lys-Leu-Arg-AMC addition measured after 30 mins by fluorescence assay relative to control
# number only, unit % dropped from output

Known inhibition results, listed for orientation:
Query: Which value of inhibition has been reported for O=C(/C=C/c1ccccc1)c1nc2ccccc2[nH]1 in the records?
Result: 13

Query: Which value of inhibition has been reported for Cc1cccc(S(=O)(=O)Nc2cccc(/C=C/C(=O)c3nc4ccccc4[nH]3)c2)c1 in the records?
Result: 50.1

Query: Which value of inhibition has been reported for O=C(/C=C/c1cccc(NS(=O)(=O)c2cccc(Cl)c2)c1)c1nc2ccccc2[nH]1 in the records?
Result: 52.6

Query: Which value of inhibition has been reported for O=C(/C=C/c1cccc(NS(=O)(=O)c2ccc(Cl)cc2)c1)c1nc2ccccc2[nH]1 in the records?
Result: 89.3

Query: Which value of inhibition has been reported for O=C(/C=C/c1cccc(NS(=O)(=O)c2ccccc2Cl)c1)c1nc2ccccc2[nH]1 in the records?
Result: 45.7

Further cases:
Query: Which value of inhibition has been reported for Cc1ccc(S(=O)(=O)Nc2cccc(/C=C/C(=O)c3nc4ccccc4[nH]3)c2)cc1 in the records?
Result: 22

Query: Which value of inhibition has been reported for O=C(Nc1cccc(/C=C/C(=O)c2nc3ccccc3[nH]2)c1)c1cccc(Cl)c1 in the records?
Result: 19.5

Query: Which value of inhibition has been reported for CC(C)(F)C[C@H](C[C@@H](c1ccc(-c2ccc(S(C)(=O)=O)cc2)cc1)C(F)(F)F)C(=O)NC1(C#N)CC1 in the records?
Result: 100

Query: Which value of inhibition has been reported for Cc1cccc(C(=O)Nc2cccc(/C=C/C(=O)c3nc4ccccc4[nH]3)c2)c1 in the records?
Result: 45.2

Query: Which value of inhibition has been reported for Cc1ccccc1S(=O)(=O)Nc1cccc(/C=C/C(=O)c2nc3ccccc3[nH]2)c1 in the records?
Result: 47.8
